observation type: pKa
One number for each entry.

{"columns": ["molecule", "pKa"],
 "data": [
  ["CN1c2ccc(C#N)cc2N=C(c2ccc(C(=O)[O-])cc2)c2cc3c(cc21)C(C)(C)CCC3(C)C", 3.5],
  ["CC(C)(C)OC(=O)N1CCC(C(=O)NS(=O)(=O)c2c(Cl)sc(Cl)c2Br)CC1", 2.1],
  ["CS(=O)(=O)Nn1c(=O)[nH]c2cc(C(F)(F)F)c(N)cc2c1=O", 8.6]
]}

I'm hoping you can list pKa for every molecule here, please.
1. CCCCC(=O)N1CCC(CNc2nc3c(s2)CCOc2ccc(F)cc2-3)CC1
2. C[C@@H](NC(=O)c1cc(C(=O)N[C@@H](Cc2ccccc2)[C@H](O)C[NH2+]C2CC2)cc(N(C)S(C)(=O)=O)c1)c1ccc(F)cc1
3. Cc1ccnc(N2CCC3(CCCN(Cc4c[nH]c5ccccc45)C3=O)CC2)n1

1. 3.69
2. 7.7
3. 4.2

====

Kindly supply the reported pKa values for the records listed here.
Give bare numbers.

{"columns": ["compound", "measured result"],
 "data": [
  ["CC(C)[NH+](CCc1c[nH]c2ccccc12)Cc1ccc(CCC(=O)N=O)cc1", 8.66],
  ["CS(=O)(=O)Nn1c(=O)[nH]c2cc(C(F)(F)F)c(N3CCCOCC3)cc2c1=O", 8.4],
  ["Cc1ccc2c(=O)c3cccc(CC(=O)[O-])c3oc2c1C", 3.8]
]}

I'm hoping you can list pKa for every compound here, please.
1. Cc1cccc(C)c1C(=O)N1CCC(C)([NH+]2CCC(N(c3ccccc3)c3ccccc3)CC2)CC1
2. COc1ccc(-c2ccc(C(=O)Nc3ccc4c(c3)CCC(C[NH+](C)C)C4)cc2)cc1 (stereo not given)
3. Cc1ccc(-c2ccc3c(c2)C=C(C(=O)Nc2ccc(C[NH+](C)C4CCOCC4)cc2)CCC3)cc1
4. CC(C)Cn1cnc2c(N)nc3ccccc3c21
5. Cc1ccc(-c2ncc(Cl)cc2-c2ccc(S(C)(=O)=O)cc2)cn1
6. O=C([O-])c1ccc(-c2nc(-c3cccc(C(F)(F)F)c3)cs2)cc1
7. C/C(=C\c1cccc(C)n1)[C@@H]1C[C@@H]2O[C@]2(C)CCC[C@H](C)[C@H](O)[C@@H](C)C(=O)C(C)(C)[C@@H](O)CC(=O)O1
8. COc1ccnc(N2CCC3(CCCN(Cc4c[nH]c5ccccc45)C3=O)CC2)n1

1: 8.35; 2: 9.1; 3: 8.3; 4: 7.24; 5: 4.63; 6: 4.1; 7: 5.5; 8: 5.28

I'm hoping you can list pKa for every compound here, please.
1. O=c1[nH]c(-c2ccc(C(F)(F)F)cc2)nc2c1CCOC2
2. O=C([O-])c1ccc(-c2ccccc2)cc1
3. CS(=O)(=O)Nn1c(=O)[nH]c2cc(C(F)(F)F)c(N3CCOCC3)cc2c1=O
4. CC/C(=C(\c1ccccc1)c1ccc(/C=C/C(=O)[O-])cc1)c1ccccc1
5. C=CCNc1ccc2c(c1)c(-c1ccc(C(C)C)cc1)nc(=O)n2C(C)C

[7.87, 3.9, 8.35, 4.26, 2.9]

I'm hoping you can list pKa for every compound here, please.
1. Cc1c(CC(=O)[O-])c2cccnc2n1S(=O)(=O)c1ccc(Cl)cc1
2. O=C([O-])c1ccccc1Nc1ccc(CCc2ccc(Cl)c(Cl)c2)cc1
3. CCc1ccc(-c2cnc(C)nc2NC2CCCC2)cc1
4. Cc1nc(N2CCN(CC3CC3)C2=O)sc1C(=O)NCc1cccnc1
5. C/C(=C\c1cc(C)ccn1)[C@@H]1C[C@@H]2O[C@]2(C)CCC[C@H](C)[C@H](O)[C@@H](C)C(=O)C(C)(C)[C@@H](O)CC(=O)O1

3.86
4.39
6.8
5
5.5

I'm hoping you can list pKa for every compound here, please.
1. O=c1cc(CSc2cccc(F)c2F)nc2cc(-c3ccco3)[nH]n12
2. NC1=[NH+]c2ccccc2CC1
3. CC(C)(C)Cn1c(Cc2ccc(NS(N)(=O)=O)cc2)cc2cnc(C#N)nc21
4. C[NH+](CCC(=O)N1CCN(c2ccc(F)c(F)c2)CC1)CCC1c2ccccc2Oc2ccccc21
5. Cc1ccc(Nc2ncc(C(=O)N3CCCCC3)cc2Cl)cn1

7.5
9.55
9.3
7.9
5.2

I'm hoping you can list pKa for every compound here, please.
1. Cc1ccc(Nc2c(F)cccc2Cl)c(CC(=O)[O-])c1
2. Clc1ccc(-c2ccc(-c3ccnc(N4CC[NH2+]CC4)n3)s2)cc1
3. CS(=O)(=O)c1ccc(C(=O)Nc2ccc(Cl)c(-c3ccccn3)c2)c(Cl)c1
4. CC(C)(C)Cn1c(CN2C(=O)CC3(CC[NH2+]CC3)C2=O)cc2cnc(C#N)nc21
5. CC(=O)N1CCN(c2ccc(OCc3cc4cnc(C#N)nc4n3CCC3CCC(F)(F)CC3)cc2)CC1
6. CC(C)[NH+](CCc1c(C(C)(C)O)[nH]c2ccccc12)Cc1ccc(CCC(=O)N=O)cc1
7. COc1ccc(CNC(=O)[C@@H](NC(=O)[C@H](Cc2ccc(OC)c(OC)c2)NC(=O)Cc2cccc(Oc3ccccc3)c2)C(C)C)c(O)c1
8. CC(C)N(CCCCOCC(=O)NS(C)(=O)=O)c1cnc(-c2ccccc2)c(-c2ccccc2)n1

1. 4.2
2. 8.9
3. 3.84
4. 9.2
5. 3.6
6. 9.01
7. 10.9
8. 3.37

I'm hoping you can list pKa for every compound here, please.
1. Cc1ccc(-c2cc(C(F)(F)F)nn2-c2ccc(S(N)(=O)=O)cc2)cc1
2. CCOc1ccc2nc(S(N)(=O)=O)sc2c1
3. CC[C@H](C(=O)NO)[C@H](C(=O)N1CCCC[C@H]1C(=O)NC)c1ccc(Cl)cc1

[9.46, 8.36, 9.2]

I'm hoping you can list pKa for every compound here, please.
1. Cc1nc2cccc(C(F)(F)F)c2c(=O)n1-c1ccc(OC2CC[NH+](C3CCC3)CC2)cc1
2. Fc1ccc([C@H]2CC[NH2+]C[C@@H]2COc2ccc3c(c2)OCO3)cc1
3. Cn1c(-c2ccc(C[NH+](C)C)cc2)cc2onc(-c3ccccc3)c2c1=O

1: 9; 2: 9.5; 3: 8.38

====

Values of pKa greater than or equal to 6 map to class 1; values below map to class 0.

For orientation, consider the following solved cases.
{"columns": ["compound", "class name"],
 "data": [
  ["O=C(Nc1cccc2cnccc12)c1ccc(-c2ccccc2)cc1", "class 0"],
  ["Cc1[nH]c2ccccc2c1CC[NH+]1CCc2cc(CCC(=O)N=O)ccc2C1", "class 1"]
]}

Check if pKa >= 6 (inclusive). Item: Cc1nc[n+]([O-])c(C)c1C(=O)N1CCC(C)([NH+]2CCC(N(c3ccccc3)c3ccccc3)CC2)CC1
class 1

Check if pKa >= 6 (inclusive). Item: CC(C)(C)[NH2+]C[C@H](O)c1cc(Cl)c(N)c(Cl)c1
class 1

Check if pKa >= 6 (inclusive). Item: COc1cccc(OC)c1-c1ccc(C[C@H](NC(=O)c2c(Cl)cccc2Cl)C(=O)[O-])cc1
class 0

Check if pKa >= 6 (inclusive). Item: COc1ccc(OC)c(S(=O)(=O)N2CCC(CN3CC[NH+](Cc4ccc(F)cc4)CC3)CC2)c1
class 1

Check if pKa >= 6 (inclusive). Item: CC(=O)N1CCN(c2ccc(OCc3cc4cnc(C#N)nc4n3CCC3CCCCC3)cc2)CC1
class 0

Check if pKa >= 6 (inclusive). Item: COc1cc(CN(CC(=O)NCc2ccccc2Cl)S(=O)(=O)c2ccc(CN3CC[NH+](C)CC3)cc2)ccc1OCC(C)C
class 1

Check if pKa >= 6 (inclusive). Item: Cc1[nH]c2ccccc2c1C1CC[NH+](Cc2ccc(CCC(=O)N=O)cc2)C1 (stereo unspecified)
class 1

====

Values of pKa greater than or equal to 6 map to t; values below map to f.

For orientation, consider the following solved cases.
{"columns": ["compound", "class name"],
 "data": [
  ["N#Cc1ccc2[nH]cc(-c3ccnc(N)n3)c2c1", "f"],
  ["Nc1nc(-c2ccccn2)nc(N)c1Cc1ccc(Cl)cc1Cl", "f"],
  ["Cc1ccc(NC(=O)c2ccccc2)cc1Nc1nccc(-c2cccnc2)n1", "f"]
]}

Check if pKa >= 6 (inclusive). Item: N#Cc1ccc2ccn(-c3ccnc(N)n3)c2c1
f

Check if pKa >= 6 (inclusive). Item: O=S(=O)(Nc1cc(F)ccc1F)c1ccc2[nH]c3c(c2c1)CCCC3
t

Check if pKa >= 6 (inclusive). Item: c1ccc(Nc2ncc3ccccc3n2)cc1
f

Check if pKa >= 6 (inclusive). Item: O=C(NO)C1c2ccccc2-c2ccccc21
t

Check if pKa >= 6 (inclusive). Item: CC(C(=O)[O-])c1ccc2c(c1)Cc1ccccc1-2 (stereo not given)
f

Check if pKa >= 6 (inclusive). Item: CC(=O)Nc1cccc(Nc2nc(Nc3ccccc3)n3ncc(C#N)c3n2)c1
t

Check if pKa >= 6 (inclusive). Item: Cc1nc(-c2ccc(OCC(C)C)c(C#N)c2)sc1C(=O)[O-]
f

Check if pKa >= 6 (inclusive). Item: COc1ccc(Nc2ccc3ccccc3n2)cc1
t

Check if pKa >= 6 (inclusive). Item: CCc1ccc(-c2cn3c([nH+]2)SCC3)cc1
f

Check if pKa >= 6 (inclusive). Item: O=c1[nH]c2ccccc2c(=O)n1CCCl
t

Check if pKa >= 6 (inclusive). Item: O=C(Nc1nnc(-c2ccc(F)cc2)o1)c1ccc(Cl)s1
f

Check if pKa >= 6 (inclusive). Item: Cc1[nH]c2ccccc2c1CC[NH2+]Cc1ccc(CCC(=O)N=O)cc1
t

Check if pKa >= 6 (inclusive). Item: C1=CN2CC(c3ccccc3)[NH+]=C2S1 (stereo not given)
t

Check if pKa >= 6 (inclusive). Item: Cc1cc(C)nc(N2CCC3(CCCN(Cc4cn(C)c5ccccc45)C3=O)CC2)n1
f

Check if pKa >= 6 (inclusive). Item: Nc1ncnc2ccc(-c3cccc(F)c3)nc12
f

Check if pKa >= 6 (inclusive). Item: COc1ccc2c(c1)CN(C(=O)CC[NH+]1CCC(Cc3ccccc3)CC1)CCS2
t

Check if pKa >= 6 (inclusive). Item: CC(C(=O)[O-])c1ccc2c(c1)C(=O)c1ccccc1CS2 (stereo not given)
f

Check if pKa >= 6 (inclusive). Item: C1=C(c2cccc3ccccc23)N2CC[NH+]=C2c2ccccc21
t

Check if pKa >= 6 (inclusive). Item: COc1ccc(N)c2ccccc12
f

Check if pKa >= 6 (inclusive). Item: O=C(Cc1ccccc1)N1CCCC12CCN(c1cnc3ccccc3n1)CC2
f

Check if pKa >= 6 (inclusive). Item: O=C1CCCC2(CCN(c3cnc4ccccc4n3)CC2)N1Cc1ccccc1
f
